conditions: in methanol, 298.45 K
endpoint.label: solubility (mole fraction)

Any idea what solubility (mole fraction) was measured for C[C@@H](O[C@H]1OCCN(Cc2n[nH]c(=O)[nH]2)[C@H]1c1ccc(F)cc1)c1cc(C(F)(F)F)cc(C(F)(F)F)c1 ? 0.00422

====

settings: in acetonitrile, 293.45 K
endpoint.label: solubility (mole fraction)
Write the value as a bare number.

Any idea what solubility (mole fraction) was measured for C[C@@H](O[C@H]1OCCN(Cc2n[nH]c(=O)[nH]2)[C@H]1c1ccc(F)cc1)c1cc(C(F)(F)F)cc(C(F)(F)F)c1 ? 0.000235

====

conditions: in ethanol, 306.25 K
endpoint.label: solubility (mole fraction)
Write the value as a bare number.

Any idea what solubility (mole fraction) was measured for C[C@@H](O[C@H]1OCCN(Cc2n[nH]c(=O)[nH]2)[C@H]1c1ccc(F)cc1)c1cc(C(F)(F)F)cc(C(F)(F)F)c1 ? 0.00316

====

conditions: in n-butanol, 313.45 K
endpoint.label: solubility (mole fraction)
Write the value as a bare number.

Any idea what solubility (mole fraction) was measured for C[C@@H](O[C@H]1OCCN(Cc2n[nH]c(=O)[nH]2)[C@H]1c1ccc(F)cc1)c1cc(C(F)(F)F)cc(C(F)(F)F)c1 ? 0.00292

====

details: in n-butanol, 301.75 K
endpoint.label: solubility (mole fraction)
Write the value as a bare number.

Any idea what solubility (mole fraction) was measured for C[C@@H](O[C@H]1OCCN(Cc2n[nH]c(=O)[nH]2)[C@H]1c1ccc(F)cc1)c1cc(C(F)(F)F)cc(C(F)(F)F)c1 ? 0.002

====

details: in ethanol, 283.55 K
endpoint.label: solubility (mole fraction)
Write the value as a bare number.

Any idea what solubility (mole fraction) was measured for C[C@@H](O[C@H]1OCCN(Cc2n[nH]c(=O)[nH]2)[C@H]1c1ccc(F)cc1)c1cc(C(F)(F)F)cc(C(F)(F)F)c1 ? 0.00166

====

details: in n-butanol, 317.45 K
endpoint.label: solubility (mole fraction)
Write the value as a bare number.

Any idea what solubility (mole fraction) was measured for C[C@@H](O[C@H]1OCCN(Cc2n[nH]c(=O)[nH]2)[C@H]1c1ccc(F)cc1)c1cc(C(F)(F)F)cc(C(F)(F)F)c1 ? 0.00335

====

settings: in acetone, 295.95 K
endpoint.label: solubility (mole fraction)
Write the value as a bare number.

Any idea what solubility (mole fraction) was measured for C[C@@H](O[C@H]1OCCN(Cc2n[nH]c(=O)[nH]2)[C@H]1c1ccc(F)cc1)c1cc(C(F)(F)F)cc(C(F)(F)F)c1 ? 0.00663

====

settings: in n-butanol, 295.45 K
endpoint.label: solubility (mole fraction)
Write the value as a bare number.

Any idea what solubility (mole fraction) was measured for C[C@@H](O[C@H]1OCCN(Cc2n[nH]c(=O)[nH]2)[C@H]1c1ccc(F)cc1)c1cc(C(F)(F)F)cc(C(F)(F)F)c1 ? 0.00164

====

details: in methanol, 292.15 K
endpoint.label: solubility (mole fraction)

Any idea what solubility (mole fraction) was measured for C[C@@H](O[C@H]1OCCN(Cc2n[nH]c(=O)[nH]2)[C@H]1c1ccc(F)cc1)c1cc(C(F)(F)F)cc(C(F)(F)F)c1 ? 0.00374

====

conditions: in acetone, 289.85 K
endpoint.label: solubility (mole fraction)
Write the value as a bare number.

Any idea what solubility (mole fraction) was measured for C[C@@H](O[C@H]1OCCN(Cc2n[nH]c(=O)[nH]2)[C@H]1c1ccc(F)cc1)c1cc(C(F)(F)F)cc(C(F)(F)F)c1 ? 0.00582

====

conditions: in n-propanol, 294.75 K
endpoint.label: solubility (mole fraction)
Write the value as a bare number.

Any idea what solubility (mole fraction) was measured for C[C@@H](O[C@H]1OCCN(Cc2n[nH]c(=O)[nH]2)[C@H]1c1ccc(F)cc1)c1cc(C(F)(F)F)cc(C(F)(F)F)c1 ? 0.00187

====

conditions: in acetonitrile, 309.55 K
endpoint.label: solubility (mole fraction)
Write the value as a bare number.

Any idea what solubility (mole fraction) was measured for C[C@@H](O[C@H]1OCCN(Cc2n[nH]c(=O)[nH]2)[C@H]1c1ccc(F)cc1)c1cc(C(F)(F)F)cc(C(F)(F)F)c1 ? 0.000444

====

conditions: in ethanol, 298.35 K
endpoint.label: solubility (mole fraction)
Write the value as a bare number.

Any idea what solubility (mole fraction) was measured for C[C@@H](O[C@H]1OCCN(Cc2n[nH]c(=O)[nH]2)[C@H]1c1ccc(F)cc1)c1cc(C(F)(F)F)cc(C(F)(F)F)c1 ? 0.00251

====

details: in methanol, 296.35 K
endpoint.label: solubility (mole fraction)

Any idea what solubility (mole fraction) was measured for C[C@@H](O[C@H]1OCCN(Cc2n[nH]c(=O)[nH]2)[C@H]1c1ccc(F)cc1)c1cc(C(F)(F)F)cc(C(F)(F)F)c1 ? 0.00405

====

settings: in acetonitrile, 312.35 K
endpoint.label: solubility (mole fraction)
Write the value as a bare number.

Any idea what solubility (mole fraction) was measured for C[C@@H](O[C@H]1OCCN(Cc2n[nH]c(=O)[nH]2)[C@H]1c1ccc(F)cc1)c1cc(C(F)(F)F)cc(C(F)(F)F)c1 ? 0.000509

====

details: in acetonitrile, 289.55 K
endpoint.label: solubility (mole fraction)

Any idea what solubility (mole fraction) was measured for C[C@@H](O[C@H]1OCCN(Cc2n[nH]c(=O)[nH]2)[C@H]1c1ccc(F)cc1)c1cc(C(F)(F)F)cc(C(F)(F)F)c1 ? 0.000196

====

conditions: in n-propanol, 296.95 K
endpoint.label: solubility (mole fraction)
Write the value as a bare number.

Any idea what solubility (mole fraction) was measured for C[C@@H](O[C@H]1OCCN(Cc2n[nH]c(=O)[nH]2)[C@H]1c1ccc(F)cc1)c1cc(C(F)(F)F)cc(C(F)(F)F)c1 ? 0.00198

====

conditions: in acetonitrile, 285.55 K
endpoint.label: solubility (mole fraction)

Any idea what solubility (mole fraction) was measured for C[C@@H](O[C@H]1OCCN(Cc2n[nH]c(=O)[nH]2)[C@H]1c1ccc(F)cc1)c1cc(C(F)(F)F)cc(C(F)(F)F)c1 ? 0.000172

====

conditions: in n-propanol, 308.75 K
endpoint.label: solubility (mole fraction)
Write the value as a bare number.

Any idea what solubility (mole fraction) was measured for C[C@@H](O[C@H]1OCCN(Cc2n[nH]c(=O)[nH]2)[C@H]1c1ccc(F)cc1)c1cc(C(F)(F)F)cc(C(F)(F)F)c1 ? 0.00285

====

conditions: in n-propanol, 290.75 K
endpoint.label: solubility (mole fraction)

Any idea what solubility (mole fraction) was measured for C[C@@H](O[C@H]1OCCN(Cc2n[nH]c(=O)[nH]2)[C@H]1c1ccc(F)cc1)c1cc(C(F)(F)F)cc(C(F)(F)F)c1 ? 0.00162

====

details: in acetone, 303.75 K
endpoint.label: solubility (mole fraction)

Any idea what solubility (mole fraction) was measured for C[C@@H](O[C@H]1OCCN(Cc2n[nH]c(=O)[nH]2)[C@H]1c1ccc(F)cc1)c1cc(C(F)(F)F)cc(C(F)(F)F)c1 ? 0.00778

====

settings: in acetone, 317.75 K
endpoint.label: solubility (mole fraction)
Write the value as a bare number.

Any idea what solubility (mole fraction) was measured for C[C@@H](O[C@H]1OCCN(Cc2n[nH]c(=O)[nH]2)[C@H]1c1ccc(F)cc1)c1cc(C(F)(F)F)cc(C(F)(F)F)c1 ? 0.0104

====

settings: in ethanol, 315.25 K
endpoint.label: solubility (mole fraction)
Write the value as a bare number.

Any idea what solubility (mole fraction) was measured for C[C@@H](O[C@H]1OCCN(Cc2n[nH]c(=O)[nH]2)[C@H]1c1ccc(F)cc1)c1cc(C(F)(F)F)cc(C(F)(F)F)c1 ? 0.00396

====

conditions: in acetone, 307.55 K
endpoint.label: solubility (mole fraction)
Write the value as a bare number.

Any idea what solubility (mole fraction) was measured for C[C@@H](O[C@H]1OCCN(Cc2n[nH]c(=O)[nH]2)[C@H]1c1ccc(F)cc1)c1cc(C(F)(F)F)cc(C(F)(F)F)c1 ? 0.0084

====

details: in n-propanol, 298.55 K
endpoint.label: solubility (mole fraction)
Write the value as a bare number.

Any idea what solubility (mole fraction) was measured for C[C@@H](O[C@H]1OCCN(Cc2n[nH]c(=O)[nH]2)[C@H]1c1ccc(F)cc1)c1cc(C(F)(F)F)cc(C(F)(F)F)c1 ? 0.00207

====

details: in acetone, 291.45 K
endpoint.label: solubility (mole fraction)
Write the value as a bare number.

Any idea what solubility (mole fraction) was measured for C[C@@H](O[C@H]1OCCN(Cc2n[nH]c(=O)[nH]2)[C@H]1c1ccc(F)cc1)c1cc(C(F)(F)F)cc(C(F)(F)F)c1 ? 0.00601

====

settings: in acetonitrile, 295.95 K
endpoint.label: solubility (mole fraction)

Any idea what solubility (mole fraction) was measured for C[C@@H](O[C@H]1OCCN(Cc2n[nH]c(=O)[nH]2)[C@H]1c1ccc(F)cc1)c1cc(C(F)(F)F)cc(C(F)(F)F)c1 ? 0.000262
